target: T1, human CD3 expressed on cells (human, UniProt P07766 23-207; P04234 22-171; P09693 23-182); assay: flow cytometry, 25 nM
T1 construct: whole, on cells; CD3 complex on Jurkat cells and on human primary T cells
T1 sequence (P07766 23-207, chain 1 of 3): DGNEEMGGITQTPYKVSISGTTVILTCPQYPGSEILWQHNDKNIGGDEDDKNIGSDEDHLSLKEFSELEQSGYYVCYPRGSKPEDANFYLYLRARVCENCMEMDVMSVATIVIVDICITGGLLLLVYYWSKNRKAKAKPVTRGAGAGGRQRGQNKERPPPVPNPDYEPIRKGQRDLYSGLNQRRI
T1 sequence (P04234 22-171, chain 2 of 3): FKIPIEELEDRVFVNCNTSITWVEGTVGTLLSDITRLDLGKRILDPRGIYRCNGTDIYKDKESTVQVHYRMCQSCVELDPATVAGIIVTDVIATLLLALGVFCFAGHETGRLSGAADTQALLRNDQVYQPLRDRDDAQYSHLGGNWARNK
T1 sequence (P09693 23-182, chain 3 of 3): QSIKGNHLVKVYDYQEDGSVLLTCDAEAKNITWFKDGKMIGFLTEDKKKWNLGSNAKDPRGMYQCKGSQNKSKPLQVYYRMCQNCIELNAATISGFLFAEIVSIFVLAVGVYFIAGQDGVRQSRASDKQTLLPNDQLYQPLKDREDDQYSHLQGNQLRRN
Give YES when the value for Human primary T Cell Binding (FOI) is at least 100 FOI. Give NO when it is less.

mAb 47 (antibody, V domains shown) VH: QAQLVQSGSELKKPGASVKVSCKASGYTFTKHSMNWVRQAPGQGLEWMGWINTNTGNPTYAQGFTGRFVFSLDTSVTTAYLQISSLKAEDTAVYYCAREGDYDFWSGFFNFDYWGQGTLVTVSS VL: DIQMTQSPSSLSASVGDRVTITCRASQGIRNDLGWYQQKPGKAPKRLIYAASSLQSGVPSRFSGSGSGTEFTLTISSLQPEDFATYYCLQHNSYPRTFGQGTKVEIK	YES

Dear colleague, could you confirm whether mAb 85 (antibody, V domains shown) VH: QVQLVQSGAEVKKPGASVKVSCKASGYTVTGYYMHWVRQAPGQGLEWMGWINPNSGGTNFAQNFQGRVTMTRDTSISTFYMDLNRLRSDDTAVYYCARGGAPVSYWFFDLWGRGTLVTVSS VL: DIQMTQSPSSLSASVGDRVTITCRASQSISRYLNWYQQKPGKAPKVLIYNTSSLKSGVPSRFSGSGSGTDFTLTISSLQPEDFGTFYCQQSHSTPFTFGPGTKVDIK has Human primary T Cell Binding (FOI) at or above 100 FOI?
YES

Is it the case that mAb 71 (antibody, V domains shown) VH: QVQLVQSGAEVRKPGASVKVSCKASGYTFTKYDVNWVRQAPGQGLEWMGWMNSNNGNIGYAQKFQGRVTMTRKTSISTAYMELSSLRSEDTAVYYCAREGHYDFWRGFYNFDYWGQGTLVTVSS VL: DIQMTQSPSSLSASVGDRVTITCRASQDIKNDLGWYQQKPGKAPKRLIYAASSLQSGVPSRFSGSGSGTEFTLTISSLQPEDFATYYCLQHNFYPITFGQGTRLEIK has Human primary T Cell Binding (FOI) reaching or exceeding 100 FOI?
YES

Assess whether reported Human primary T Cell Binding (FOI) for mAb 81 (antibody, V domains shown) VH: QVQLAESGGGVVQPGRSLRLSCAASGFTFSGYGMHWVRQAPGKGLDWVAIIYYDGKNKYYADSVKGRFTISRDNSKNTLYLQMNSLRAEDTAVYYCARGGGYNWFDPWGQGTLVTVSS VL: DIQMTQSPSSLSASVGDRVTITCRPSQTISNYLNWYQQDPGKAPKLLIYAASSLQSGVPSRFSGSGSGTDFTLTISSLQPEDFATYYCQQSYSTPITFGRGTRLEIK sits at 100 FOI or higher.
YES

Threshold query (Human primary T Cell Binding (FOI) >= 100 FOI) on mAb 124 (antibody, V domains shown) VH: EVQVVESGGDLVQPGGSLRLSCAASGFTFSTYAMTWVRQAPGKGLEWISTISGSGHNTYYADSVKGRFTISRGNSKNTLFLQMNSLRAEDTAVYYCAKENCGGDCLYYMDVWGKGTTVTVSS VL: DIQMTQSPSSLSASVGDRVTITCRASQSISNYLNWYQQKSGKAPKLLIYFASSLQSGVPSRFGGSGAGTDFTLTISSLQPEDFATYSCQQSYSTPLTFGGGTKVEIK
NO
